PARAMETER_MEASURED: melting point

Below: 6 compounds and their reported melting point.
> print(dat)
                                   compound  observed.measurement
1  CC(C)(C)OC(=O)N1CC2CC(CN(CC(O)COc3ccc(C(C)(C)C)cc3)C2)C1 (stereo not given)           75 to 77 °C
2                    COc1ccc2c(c1OC)CCCC2=O         103 to 104 °C
3  COC(C)(C)c1ccc(-c2cc(-c3c[nH]nc3-c3cccc(C)n3)ccc2F)nc1         168 to 169 °C
4  Cc1ccc(COc2ccc3c(c2)c(C=CC(=O)O)cn3CC(=O)N(C)CCc2ccccc2)cc1         164 to 166 °C
5        CC(C)(C)OC(=O)Nc1ccc(F)cc1C(F)(F)F           61 to 62 °C
6  COc1c([N+](=O)[O-])c([N+](=O)[O-])c(OC)c2[nH]c(C(F)(F)F)nc12         208 to 210 °C

Endpoint output: melting point of O=c1oc2c(c(O)c1C(c1ccccc1)C1CC1)CCCCCCCCCC2 (stereo not given) . Value?
97.8 to 99 °C

Endpoint output: melting point of Cc1c(C)c2c(c(C)c1N)CC(C)(CN1CCC(OCCCc3ccccc3)CC1)O2 (stereo not given) . Value?
53 to 54 °C

Endpoint output: melting point of CCOC(=O)c1c2ccc(Cl)cc2c(-c2ccccc2)n1CCCN(C)c1ccccc1 . Value?
108 to 110 °C

Endpoint output: melting point of C=CCOc1ccc(C(=O)N[C@@H](C)c2cccc3ccccc23)cc1 . Value?
141 to 143 °C

====

# Lookup of reported melting point keyed by entry

Below: 3 compounds and their reported melting point.
> print(dat)
                                   compound  parameter.measured  observed.measurement
1                      C=CCn1c(NC)n[nH]c1=S       melting point         129 to 131 °C
2     N#Cc1cc(-c2nc3cncnc3s2)ccc1Sc1ccccc1F       melting point         178 to 180 °C
3  CCCCNC(=O)ON1C(C)(C)CC(OC(=O)C(CC)(CC)C(=O)OC2CC(C)(C)N(OC(=O)NCCCC)C(C)(C)C2)CC1(C)C       melting point         166 to 169 °C

Endpoint output: melting point of CCOc1cccc(C)c1S(=O)(=O)N=C=O . Value?
40 °C

Endpoint output: melting point of CC1(C)C(=O)NCCN1C(=O)C(N)Cc1ccccc1 (stereo not given) . Value?
70 to 73 °C

====

# Lookup of reported melting point keyed by entry

> print(dat)
                                   compound  observed.measurement
1  Cc1nc(-c2ccc(OCC(F)(F)C(F)F)cc2)sc1C(=O)O         167 to 168 °C
2  CCCC(=O)Nc1c(C(=O)c2cccc(Cl)c2)[nH]c2cc(Cl)ccc12         157 to 158 °C
3  C#CCn1nc(-c2ccc(SC)cc2)c(-c2ccc(F)cc2)c1C(F)(F)F         136 to 138 °C
4  Nc1scc2c(C(=O)NC3CC3)nn(-c3ccc(Cl)cc3)c(=O)c12         188 to 190 °C
5                          COc1ccc(I)cc1C=O         140 to 142 °C

Endpoint output: melting point of CCOC(=O)C1=C(COCC(C)(O)Cn2cncn2)NC(C)=C(C(=O)OC)C1c1cccc(Cl)c1Cl (stereo not given) . Value?
149 to 160 °C

Endpoint output: melting point of CCCc1c(OCCCCCCc2cccc(OCC(=O)O)c2CCC(=O)O)ccc2c1OCCC2=O . Value?
127 to 129 °C

Endpoint output: melting point of CCOC(=O)/C=C/c1ccc(OCc2nc(C)c(C)nc2C)c(OC)c1 . Value?
112 °C

Endpoint output: melting point of COc1cc(OC)c2c(c1)N(C)C(c1cc(C)c(O)c(C)c1)N=C2 (stereo not given) . Value?
188 to 189 °C

Endpoint output: melting point of CC(=O)NCC1CC1c1c(C#N)ccc2nn(C)cc12 (stereo not given) . Value?
189 to 192 °C
